Origin of values: patent US20180265572A1

- Experimental Target: T1, human IGF-IR-Fc fusion (human, UniProt P08069 31-932)
- T1 construct: range 1-932; If it counts on the precursor, it includes the signal peptide; also called IGF1R-Fc; not shown: hinge and constant regions of human IgG
- T1 sequence (P08069 31-932 limits assumed, form in doubt): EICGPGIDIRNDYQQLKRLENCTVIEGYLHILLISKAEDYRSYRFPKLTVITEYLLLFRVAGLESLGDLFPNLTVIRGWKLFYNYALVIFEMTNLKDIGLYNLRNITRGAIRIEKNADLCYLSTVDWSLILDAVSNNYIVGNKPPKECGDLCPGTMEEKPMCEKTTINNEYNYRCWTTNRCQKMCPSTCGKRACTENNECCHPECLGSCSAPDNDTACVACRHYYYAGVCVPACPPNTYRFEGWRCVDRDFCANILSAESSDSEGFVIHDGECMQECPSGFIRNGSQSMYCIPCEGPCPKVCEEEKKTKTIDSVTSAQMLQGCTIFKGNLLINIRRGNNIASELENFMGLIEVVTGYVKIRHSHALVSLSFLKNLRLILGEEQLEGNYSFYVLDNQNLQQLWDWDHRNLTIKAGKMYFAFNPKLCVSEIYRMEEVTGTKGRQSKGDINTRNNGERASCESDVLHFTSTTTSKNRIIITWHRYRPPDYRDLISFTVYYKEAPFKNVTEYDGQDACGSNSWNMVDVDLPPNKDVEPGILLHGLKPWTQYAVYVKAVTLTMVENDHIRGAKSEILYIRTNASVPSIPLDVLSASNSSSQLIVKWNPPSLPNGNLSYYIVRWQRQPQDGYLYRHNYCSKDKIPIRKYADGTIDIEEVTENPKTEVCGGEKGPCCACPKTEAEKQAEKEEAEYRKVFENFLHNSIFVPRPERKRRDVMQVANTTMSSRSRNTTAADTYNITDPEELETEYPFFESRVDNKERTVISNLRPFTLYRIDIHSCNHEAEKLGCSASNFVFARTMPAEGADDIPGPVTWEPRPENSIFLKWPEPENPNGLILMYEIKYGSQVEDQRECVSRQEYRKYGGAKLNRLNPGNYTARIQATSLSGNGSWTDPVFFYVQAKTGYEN
- Assay Name: SPR (Biacore), IGF-IR-Fc captured on Protein A/G, HTPP purified binder in solution, n=1, KD approximate
pKd: −log10 of the molar value.
Experimental Endpoint: pKd

V2B-Fn-385A08 (designed binder, also called V2B-Fn-385A08 (Ser tail)) single chain: MGVSDVPRDLEVVAATPTSLLISWRHPHFPTRYYRITYGETGGNSPVQEFTVPLQPPTATISGLKPGVDYTITVYAVTDGRNGRLLSIPISINYRTEIDKPSTSTSTVSDVPRDLEVVAATPTSLLISWSARLKVARYYRITYGETGGNSPVQEFTVPKNVYTATISGLKPGVDYTITVYAVTRFRDYQPISINYRTEIDKPSQHHHHHH : ~9.70
V2B-GS10 (SEQ ID NO: 22)-385A08, his-tagged (designed binder, also called V2B-GS10-385A08; V2B-GS10-385A08 (Ser tail)) MGVSDVPRDLEVVAATPTSLLISWRHPHFPTRYYRITYGETGGNSPVQEFTVPLQPPTATISGLKPGVDYTITVYAVTDGRNGRLLSIPISINYRTEIDKGSGSGSGSGSGSGSGSGSGSVSDVPRDLEVVAATPTSLLISWSARLKVARYYRITYGETGGNSPVQEFTVPKNVYTATISGLKPGVDYTITVYAVTRFRDYQPISINYRTEIDKPSQHHHHHH : ~9.70
385A08-GS10 (SEQ ID NO: 22)-V2B, his-tagged (designed binder, also called 385A08-GS10-V2B; 385A08-GS10-V2B (Ser tail)) MGVSDVPRDLEVVAATPTSLLISWSARLKVARYYRITYGETGGNSPVQEFTVPKNVYTATISGLKPGVDYTITVYAVTRFRDYQPISINYRTEIDKGSGSGSGSGSGSGSGSGSGSVSDVPRDLEVVAATPTSLLISWRHPHFPTRYYRITYGETGGNSPVQEFTVPLQPPTATISGLKPGVDYTITVYAVTDGRNGRLLSIPISINYRTEIDKPSQHHHHHH : ~9.52

// moving on: another record for pKd
Ask | Note pKd for the binder shown: 385A08-Fn-V2B (non pegylated, his-tagged version) (designed binder, also called 385A08-Fn-V2B (Ser tail); 385A08-Fn-V2B (with his tag)) GVSDVPRDLEVVAATPTSLLISWSARLKVARYYRITYGETGGNSPVQEFTVPKNVYTATISGLKPGVDYTITVYAVTRFRDYQPISINYRTEIDKPSTSTSTVSDVPRDLEVVAATPTSLLISWRHPHFPTRYYRITYGETGGNSPVQEFTVPLQPPTATISGLKPGVDYTITVYAVTDGRNGRLLSIPISINYRTEIDKPSQHHHHHH
Reply | ~9.52
